Overview of reported IC50 across a group of compounds:
Target: Recombinant full length human OGA enzyme (Homo sapiens, UniProt O60502)
Construct: Recombinant full length human OGA enzyme
Sequence (O60502 1-916): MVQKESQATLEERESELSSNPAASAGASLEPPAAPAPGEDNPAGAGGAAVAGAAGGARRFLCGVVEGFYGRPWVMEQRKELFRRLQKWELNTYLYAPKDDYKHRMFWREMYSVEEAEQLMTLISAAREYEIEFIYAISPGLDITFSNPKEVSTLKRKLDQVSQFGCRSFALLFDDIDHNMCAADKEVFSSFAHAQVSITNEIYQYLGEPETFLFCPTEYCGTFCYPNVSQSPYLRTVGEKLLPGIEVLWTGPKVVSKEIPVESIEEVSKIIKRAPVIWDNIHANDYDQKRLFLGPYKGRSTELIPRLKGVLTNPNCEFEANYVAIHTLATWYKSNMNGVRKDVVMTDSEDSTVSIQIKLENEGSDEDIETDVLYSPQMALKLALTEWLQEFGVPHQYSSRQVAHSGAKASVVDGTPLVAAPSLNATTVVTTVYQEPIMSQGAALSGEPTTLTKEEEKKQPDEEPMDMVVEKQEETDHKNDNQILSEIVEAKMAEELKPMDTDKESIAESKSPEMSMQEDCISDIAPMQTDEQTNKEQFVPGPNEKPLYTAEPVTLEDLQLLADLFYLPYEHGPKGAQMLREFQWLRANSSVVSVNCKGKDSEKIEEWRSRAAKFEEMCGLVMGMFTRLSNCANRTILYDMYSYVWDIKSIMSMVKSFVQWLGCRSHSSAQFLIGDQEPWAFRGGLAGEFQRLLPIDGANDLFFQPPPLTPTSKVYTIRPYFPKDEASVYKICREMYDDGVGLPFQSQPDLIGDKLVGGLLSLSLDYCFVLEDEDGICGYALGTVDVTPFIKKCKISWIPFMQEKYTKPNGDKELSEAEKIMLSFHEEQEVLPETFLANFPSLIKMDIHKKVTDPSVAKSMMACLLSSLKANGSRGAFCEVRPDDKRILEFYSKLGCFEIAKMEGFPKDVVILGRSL
Experiment: OGA Enzyme Inhibition Biochemical Assay
Settings: 1 nM OGA, 100 μM 4-MUGlcNAc (Km), pH 6.4, 90 minutes at room temperature, 10-point dose-response starting from 20 μM
Numeric answer only, unit µM assumed.

The examples below pair each entry with its known result.
>>> observedresult("CC(=O)Nc1ncc(CN2CC(COc3cc(C)nc(C)n3)C2)s1 [Example 2-21]")
1.3
>>> observedresult("COc1cc(NCC2CN(Cc3cnc(NC(C)=O)s3)C2)ccn1 [Example 2-25]")
0.61

Give reported IC50 value for COc1cc(N[C@H]2CN(Cc3cnc(NC(C)=O)s3)[C@@H]2C)ccn1 [Example 2-17]
0.011

Give reported IC50 value for CC(=O)Nc1ncc(CN2C[C@H](Oc3ccc(C#N)cn3)[C@H]2C)s1 [Example 2-32]
0.98

Give reported IC50 value for CC(=O)Nc1ncc(CN2CC(Cc3ccccc3)C2)s1 [Example 4-2]
0.58
